Cited source: PubChem BioAssay (NCI)

Experiment: NCI Yeast Anticancer Drug Screen. Data for the mec2-1 strain (AID 157)
Settings: S. cerevisiae mec2-1 strain, at 50.0 µM (retest, dose inferred, filed as 5.0), active compounds read high
Compounds without any hit were thinned out: in the full panel of roughly 79,000, 15% have a hit.
Consider the following compounds; for each one, report its growth inhibition.
Give just the number in %; leave the unit off.

Return value of growth inhibition for input OCC(CO)C(c1cccc2ccccc12)c1cccc2ccccc12 , no commentary.
99

Provide only the value of recorded growth inhibition for O=C(NCCCNCCN1C(=O)c2cccc3cc([N+](=O)[O-])cc(c23)C1=O)c1cc(-c2ccccc2)nc2ccccc12
86

Return growth inhibition for the following compound: OC(/C=C/c1ccccc1)(Cc1cc(-c2ccccc2)n[nH]1)c1ccccc1 (stereo not given)
97

Give recorded growth inhibition. CC1SC2(C(=O)Nc3ccc(Cl)cc32)N(c2ccc(Cl)cc2)C1=O (stereo not given)
5

Hello, please tell me recorded growth inhibition for this one: COc1cc2ccnc(-c3c4ccccc4c(N)c4c(OC)c(OC)ccc34)c2cc1OC
33

Report growth inhibition for COc1ccc(/C=C/c2sc3ccccc3[n+]2CCCCI)cc1OC
56

# return recorded growth inhibition for entry CCC(=O)c1cc(C(=O)C(=S)SC)cc(C(=O)C(=S)SC)c1
96

Hello, please tell me recorded growth inhibition for this one: COc1cc(C2c3cc4c(cc3OC(OC(C)=O)C2C)OCO4)cc(OC)c1OC (stereo not given)
5

Supply reported growth inhibition belonging to this compound: Cc1ccc(N=Nc2ccc(O)c(=O)cc2)cc1
43

Return growth inhibition for the following compound: CCc1c[n+]([O-])c(C)cc1[N+](=O)[O-]
77
